Origin of measurements: patent US20080262010A1

- assay-notes: Water solubility of compound 3 free base and its salts
- Assay type: physicochemical
- test-parameters: salts of compound 3
Structures can show the parent of a compound that is named as a salt.

compound	solubility / µg/mL
COc1ccc(-c2ccnc(Nc3ccc(S(=O)(=O)NCCCN(C)C)cc3)n2)cc1F [D-glucoronate salt of compound 3]	5170
